molecular target: Transient receptor potential cation channel subfamily A member 1 (Homo sapiens, UniProt O75762); experiment: Antagonist activity at human TRPA1 expressed in HEK293 cells assessed as inhibition of AITC-induced Ca2+ influx
Sequence (O75762 whole entry): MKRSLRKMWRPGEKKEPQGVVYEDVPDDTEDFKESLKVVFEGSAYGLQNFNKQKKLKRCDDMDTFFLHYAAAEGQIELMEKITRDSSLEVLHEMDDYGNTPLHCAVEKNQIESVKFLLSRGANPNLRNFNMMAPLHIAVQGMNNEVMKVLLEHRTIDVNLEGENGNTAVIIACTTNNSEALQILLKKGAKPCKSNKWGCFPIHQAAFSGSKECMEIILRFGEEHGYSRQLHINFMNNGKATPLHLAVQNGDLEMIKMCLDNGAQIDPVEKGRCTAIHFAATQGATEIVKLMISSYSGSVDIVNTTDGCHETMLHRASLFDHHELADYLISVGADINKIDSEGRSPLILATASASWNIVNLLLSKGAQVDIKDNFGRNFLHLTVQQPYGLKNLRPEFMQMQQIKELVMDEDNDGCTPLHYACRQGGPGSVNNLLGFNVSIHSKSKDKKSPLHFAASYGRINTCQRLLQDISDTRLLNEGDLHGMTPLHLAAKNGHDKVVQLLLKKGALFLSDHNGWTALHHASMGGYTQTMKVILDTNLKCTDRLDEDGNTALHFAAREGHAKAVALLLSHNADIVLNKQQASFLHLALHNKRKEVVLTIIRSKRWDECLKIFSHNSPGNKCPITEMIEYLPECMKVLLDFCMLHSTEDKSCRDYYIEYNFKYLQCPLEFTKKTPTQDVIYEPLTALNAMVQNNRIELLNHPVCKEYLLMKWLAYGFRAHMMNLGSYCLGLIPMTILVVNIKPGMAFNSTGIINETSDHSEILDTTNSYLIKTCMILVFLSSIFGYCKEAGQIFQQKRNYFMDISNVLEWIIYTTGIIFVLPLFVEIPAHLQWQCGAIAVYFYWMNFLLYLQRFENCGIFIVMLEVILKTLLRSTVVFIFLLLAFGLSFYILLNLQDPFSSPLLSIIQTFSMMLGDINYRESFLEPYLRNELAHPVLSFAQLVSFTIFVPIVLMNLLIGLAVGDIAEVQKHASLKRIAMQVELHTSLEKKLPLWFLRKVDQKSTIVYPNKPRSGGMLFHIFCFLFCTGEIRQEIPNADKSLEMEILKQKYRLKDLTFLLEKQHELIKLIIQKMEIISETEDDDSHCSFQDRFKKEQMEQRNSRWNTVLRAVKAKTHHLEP
ENDPOINT: IC50

IN: Using the record for O=C(O)c1ccc(S(=O)(=O)N(Cc2ccc(OC(F)(F)F)cc2)c2ncc(C(F)(F)F)cc2Cl)cc1 , report its IC50.
OUT: > 10 µM

----------
target: Transient receptor potential cation channel subfamily V member 1 (Homo sapiens, UniProt Q8NER1); test: Antagonist activity at human TRPV1 expressed in HEK293 cells assessed as inhibition of capsaicin-induced Ca2+ influx
Sequence (Q8NER1 whole entry, looked up): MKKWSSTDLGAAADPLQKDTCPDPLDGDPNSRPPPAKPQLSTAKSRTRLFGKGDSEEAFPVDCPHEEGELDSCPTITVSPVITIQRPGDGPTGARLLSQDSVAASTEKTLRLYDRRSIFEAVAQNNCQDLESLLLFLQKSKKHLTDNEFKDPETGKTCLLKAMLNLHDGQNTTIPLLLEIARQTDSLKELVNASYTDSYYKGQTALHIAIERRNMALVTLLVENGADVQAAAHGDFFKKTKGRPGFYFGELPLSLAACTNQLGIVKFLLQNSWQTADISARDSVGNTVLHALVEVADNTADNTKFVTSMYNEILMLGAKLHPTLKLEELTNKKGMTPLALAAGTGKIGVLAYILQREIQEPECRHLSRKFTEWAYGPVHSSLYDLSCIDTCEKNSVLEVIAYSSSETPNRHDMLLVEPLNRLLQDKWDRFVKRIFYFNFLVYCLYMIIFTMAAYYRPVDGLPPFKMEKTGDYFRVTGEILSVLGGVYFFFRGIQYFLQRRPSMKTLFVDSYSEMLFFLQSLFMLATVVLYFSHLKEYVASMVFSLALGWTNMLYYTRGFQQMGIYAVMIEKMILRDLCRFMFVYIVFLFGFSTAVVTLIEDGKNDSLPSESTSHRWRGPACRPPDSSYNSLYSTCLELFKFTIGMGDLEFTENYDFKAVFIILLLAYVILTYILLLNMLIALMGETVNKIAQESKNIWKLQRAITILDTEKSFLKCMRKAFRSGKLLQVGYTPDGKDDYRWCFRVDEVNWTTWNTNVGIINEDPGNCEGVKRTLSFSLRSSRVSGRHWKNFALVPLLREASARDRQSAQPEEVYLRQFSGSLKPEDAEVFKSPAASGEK
ENDPOINT: IC50

IN: Using the record for O=C(O)c1ccc(S(=O)(=O)N(Cc2ccc(OC(F)(F)F)cc2)c2ncc(C(F)(F)F)cc2Cl)cc1 , report its IC50.
OUT: > 10 µM
